Values compiled from patent US20230256092A1.

Biological target: T1, human CCR8 (Homo sapiens, UniProt P51685)
T1 construct: expressed in transfected cells; host or cells: 293 cells
Experiment: Neutralizing activity: inhibition of Ca2+ influx by 200 nM hCCL1 in human CCR8 expressing 293 cells (FLIPR), Test Example 6
Type: cell-based
Conditions: Table 9; WT IC50/mutant IC50; humanized 10A11 heavy chain CDR mutants, IGKV4-1/IGHV3-73
Procedure: The antibody dilution diluted with a medium was added to human CCR8 expressing 293 cells in which a Ca^2+ indicator was incorporated beforehand, and Ca^2+ influx by addition of 200 nM hCCL1 (manufactured by BioLegend) was measured with FLIPR. […] The evaluation was performed at least three times, and IC50 was expressed as average±SD.
Endpoint label: IC50 ratio

>>> result("h10A11 (IGKV4-1/IGHV3-73 S52cT): humanized 10A11 heavy chain CDR point mutant (antibody, V domains shown) VL: DIVMTQSPDSLAVSLGERATINCRSSKSLLHSNGNTYLYWYQQKPGQPPKLLIYRMSNLASGVPDRFSGSGSGTDFTLTISSLQAEDVAVYYCMQHLEYPLTFGQGTKLEIKRT VH: EVQLVESGGGLVQPGGSLKLSCAASGFAFNTYALYWVRQASGKGLEWVGRIRSKTNNYATYYADSVKDRFTISRDDSKNTAYLQMNSLKTEDTAVYYCTRARFYYSDYGYAMDYWGQGTLVTVSS")
0.53

Read the entry h10A11 (IGKV4-1/IGHV3-73 G100cA): humanized 10A11 heavy chain CDR point mutant (antibody, V domains shown) VL: DIVMTQSPDSLAVSLGERATINCRSSKSLLHSNGNTYLYWYQQKPGQPPKLLIYRMSNLASGVPDRFSGSGSGTDFTLTISSLQAEDVAVYYCMQHLEYPLTFGQGTKLEIKRT VH: EVQLVESGGGLVQPGGSLKLSCAASGFAFNTYALYWVRQASGKGLEWVGRIRSKSNNYATYYADSVKDRFTISRDDSKNTAYLQMNSLKTEDTAVYYCTRARFYYSDYAYAMDYWGQGTLVTVSS and write its reported IC50 ratio. 0.07
